# Test system: U251 CNS
# test.details: NCI-60 one-dose screen, 48 h (100 = growth as untreated, 0 = no growth, -100 = all killed)
# recorded.conditions: 10 µM
About 83,000 compounds went through this panel and 20% of them were active in at least one assay; those are over-represented in the sample as a whole.
outcome.measure: growth (%)
Write it as a number; the unit % goes unstated.

CCOP(=O)(OCC)C(NC(C)=O)C(=O)SCCN (configuration not stated)    106
C[C@H]1[C@H](OC(=O)CCC(=O)Nc2cnccn2)O[C@@H]2OC3(C)CC[C@H]4[C@H](C)CC[C@@H]1[C@@]24OO3    42.6
O=C(/C=C/c1ccc(F)cc1)c1nc2ccccc2n1Cc1ccc(Br)cc1    -91.8
CC[C@]12C=CCN3CC[C@@]4(c5ccc(OC)cc5N(C)[C@H]4[C@@](O)(C(=O)OC)[C@@H]1OC(=O)CCCC[P+](c1ccc(C)cc1)(c1ccc(C)cc1)c1ccc(C)cc1)[C@@H]32    -93.6
COc1cc(OC)c(S(=O)(=O)N(CCCl)CCCl)cc1C(=O)/C=C/c1cc(OC)c(OC)c(OC)c1    -79.6

# compound Cc1c2oc3c(C)ccc(C(=O)N[C@@H]4C(=O)N[C@H](C(C)C)C(=O)N5CCC[C@H]5C(=O)N(C)CC(=O)N(C)[C@@H](C(C)C)C(=O)OC4C)c3nc-2c(C(=O)N[C@@H]2C(=O)N[C@H](C(C)C)C(=O)N3CC(=O)C[C@H]3C(=O)N(C)CC(=O)N(C)[C@@H](C(C)C)C(=O)OC2C)c(N)c1=O (some centres not stated) ; its growth = 1.58

get_value(item= "CCC[Se]C(=O)c1ccc(C(=O)[Se]CCC)s1" , readout=growth) returns -60.4

Note to self: growth recorded for "C[C@H]1[C@@H](CC(=O)N[C@@H](Cc2coc3ccccc23)B(O)O)O[C@@H]2OC3(C)CC[C@H]4[C@H](C)CC[C@@H]1[C@@]24OO3" was -14.3

----------
# System: MDA-MB-468 breast
# test.details: NCI-60 one-dose screen, 48 h
# recorded.conditions: 10 µM unless noted
About 83,000 compounds went through this panel and 20% of them were active in at least one assay; those are over-represented in the sample as a whole. The source made the active and inactive calls. Rule for the calls: active = growth percent below 10; inactive = the rest.
Answer with one of the outcomes true = active, false = inactive

CC(=O)O[C@H]1C(=O)[C@@]2(C)[C@H]([C@H](OC(=O)c3ccccc3)[C@]3(O)C[C@H](OC(=O)[C@H](OC(=O)OCC4COC(C)(C)O4)[C@@H](NC(=O)c4ccccc4)c4ccccc4)C(C)=C1C3(C)C)[C@]1(OC(C)=O)CO[C@@H]1C[C@@H]2O (stereo not given in full)    true
O=C([O][Hg][CH2]C1OCCOC1[CH2][Hg][O]C(=O)c1ccccc1)c1ccccc1 (stereo not given)    true
O=[N+]([O-])CC(c1ccccc1Cl)c1c(-c2ccccc2)[nH]c2ccccc12 (stereo not given)    true
C[CH2][Sn]([CH2]C)([CH2]C)[NH]S(=O)(=O)c1ccc(C)cc1    false
C#Cc1ccc2c(c1)C(c1ccccc1F)=NCC(=O)N2C    false
CCC1CN1CCCCN1CC1CC (stereo not given)    false

[in] Returns: the outcome recorded for "O=C(O)CCCc1ccc(N(CCCl)CCCl)cc1" in this assay.
[out] false

[in] Hi, sorry to bother you, what did the test record for COc1cc(C2C3=C(CCCC3=O)N(CCO)c3cc4c(cc32)CCC4)cc(OC)c1OC (stereo not given) ?
[out] false

----------
# Tested on: HL-60(TB) leukemia
# test.details: NCI-60 one-dose screen, 48 h (100 = growth as untreated, 0 = no growth, -100 = all killed)
# recorded.conditions: 10 µM unless noted
This is part of a sample that, as a whole, favours compounds with a hit. Of some 83,000 tested, about 20% had one in any assay.
Classify: satisfied when growth is strictly less than 60%; not satisfied when growth is not.

Solved cases (6 shown):
CCCCn1c(O)c(N=Nc2nc(-c3cc4ccccc4oc3=O)cs2)c2cc(Br)ccc21    not satisfied
N#Cc1cnn(C(=O)c2ccccc2Br)c1NC(=O)c1ccc(Br)cc1Cl    not satisfied
FC(F)(F)c1cc2c(Cl)ncnc2n1CCN1CCOCC1    satisfied
O=c1[nH]c2ccc(Cl)cc2cc1CSc1ccc(Nc2nccc(-c3ccc4ccccc4c3)n2)cc1    not satisfied
CNS(=O)(=O)c1ccc(Nc2ccc(C(F)(F)F)cc2)c(-c2cn(C)cn2)c1    satisfied
COc1cc(/C=C/C(=O)c2cnn(-c3cc(=O)[nH]c4ccc(C)cc34)c2C)cc(OC)c1OC    satisfied

[in] Input COc1ccc2c(c1)C(Sc1ccc(Br)cc1)c1c(nc(N)c(C#N)c1N)O2 (stereo not given) ; condition: growth strictly below 60%. Does it hold?
[out] not satisfied

[in] Is it true that growth reported for "Cc1ccc(C(=O)Nc2cc(-n3ccnc3)cc(C(F)(F)F)c2)cc1-n1cc(-c2cnc3cccnn23)nn1" is less than 60%?
[out] satisfied

[in] Please let me know if "COc1ccc2[nH]c(=O)c(CSc3ccccc3Nc3nccc(-c4ccc(Cl)cc4)n3)cc2c1" shows growth below 60%.
[out] satisfied

[in] In the record for "O=C(NN1C(=O)/C(=C/C=C/c2ccc([N+](=O)[O-])o2)SC1=S)c1ccccc1O" , is growth less than 60%?
[out] satisfied

----------
# Test system: 786-0 renal
# test.details: NCI-60 one-dose screen, 48 h
# recorded.conditions: 10 µM
This is part of a sample that, as a whole, favours compounds with a hit. Of some 83,000 tested, about 20% had one in any assay. The source made the active and inactive calls. Rule for the calls: active = growth percent below 10; inactive = the rest.
Respond only with the outcome that fits, drawn from 1.0 for active, 0.0 for inactive

C[C@H]1[C@H](OC(=O)CCC(=O)N(CCCc2cn(-c3ccc(C#N)cc3)nn2)CCNc2ccnc3cc(Cl)ccc23)O[C@@H]2OC3(C)CC[C@H]4[C@H](C)CC[C@@H]1[C@@]24OO3    0.0
COc1cc(OC)c(S(=O)(=O)N(CCCl)CCCl)cc1C(=O)/C=C/c1ccc(C)cc1    0.0
Cc1c2oc3c(C)ccc(C(=O)N[C@@H]4C(=O)N[C@H](C(C)C)C(=O)N5CCC[C@H]5C(=O)N(C)CC(=O)N(C)[C@@H](C(C)C)C(=O)OC4C)c3nc-2c(C(=O)N[C@@H]2C(=O)N[C@H](C(C)C)C(=O)N3CC(=O)C[C@H]3C(=O)N(C)CC(=O)N(C)[C@@H](C(C)C)C(=O)OC2C)c(N)c1=O (some centres not stated)    0.0
O=C(/C=C/c1ccco1)c1nc2ccccc2n1Cc1ccc(Br)cc1    0.0
C#CC[Se]C(=O)c1ccc(C(=O)[Se]CC#C)s1    0.0
Cc1ccc2[nH]c(=S)n(-c3ccc(F)cc3)c(=O)c2c1    0.0
COc1ccc(/C=C/C(=O)c2nc3ccccc3n2Cc2ccc(Br)cc2)cc1    0.0
COc1cc2cc(C(=O)N3C[C@@H](CCl)c4c3cc(OC(=O)N3CCN(C)[C@@H]5CSSC[C@H]53)c3ccccc43)[nH]c2c(OC)c1OC    1.0
CC(C)C[C@H](NC(=O)CNC(=O)C[C@H]1O[C@@H]2OC3(C)CC[C@H]4[C@H](C)CC[C@@H]([C@H]1C)[C@@]24OO3)B(O)O    0.0
COC(=O)C[C@](O)(CCCC(C)C)C(=O)O[C@H]1C(OC)=C[C@@]23CCCN2CCc2cc4c(cc2[C@@H]13)OCO4    1.0

[in] Field: outcome | Entry: "CC(C)N=C([Se])NC(=O)c1ccccc1"
[out] 1.0

[in] Given "C=CC[Se]C(=O)c1ccc(C(=O)[Se]CC=C)s1" , state the outcome it received in this test.
[out] 1.0

[in] Check the results log: what was the call for "O=C(/C=C/c1ccc(F)cc1)c1nc2ccccc2n1Cc1ccc(Br)cc1" ?
[out] 1.0

[in] Field: outcome | Entry: "C#CC[Se]C(=O)c1ccc2n[se]nc2c1"
[out] 0.0

[in] Look up the recorded call for "O=C(/C=C/c1ccccc1Cl)c1nc2ccccc2n1Cc1ccc(F)cc1" in this test.
[out] 1.0

[in] Can you look up the reported call for "O=C(NCCCCC(c1ccc(F)cc1)c1ccc(F)cc1)Nc1ccc([N+](=O)[O-])c(C(F)(F)F)c1" for me?
[out] 1.0

[in] Recorded test call requested for "O=C(NC([Se])=NC1CCCCC1)c1ccccc1"
[out] 0.0

----------
# Test system: NCI-H522 lung
# test.details: NCI-60 one-dose screen, 48 h (100 = growth as untreated, 0 = no growth, -100 = all killed)
# recorded.conditions: 10 µM
The panel holds about 83,000 compounds, 20% with a hit somewhere; the sample as a whole holds those more often. The source made the active and inactive calls. The calls were made as follows: active = growth percent below 10; inactive = the rest.
outcome.measure: growth

CC1=C(COCCOC(=O)c2ccc(S(=O)(=O)F)cc2)C2=C(C)C3(CC3)[C@@](C)(O)C(=O)C2=C1    -72.2% (active)
CC[C@]12C=CCN3CC[C@@]4(c5ccc(OC)cc5N(C)[C@H]4[C@@](O)(C(=O)OC)[C@@H]1OC(=O)CCC[P+](c1ccc(C)cc1)(c1ccc(C)cc1)c1ccc(C)cc1)[C@@H]32    -86.3% (active)
O=C(/C=C/c1ccc(F)cc1)c1nc2ccccc2n1Cc1ccc(Br)cc1    -64% (active)
CC12OOC(C)(OO1)C2CCC(=O)NCCNc1ccnc2cc(Cl)ccc12 (centres undefined)    -61.6% (active)
Cc1c2oc3c(C)ccc(C(=O)N[C@@H]4C(=O)N[C@H](C(C)C)C(=O)N5CCC[C@H]5C(=O)N(C)CC(=O)N(C)[C@@H](C(C)C)C(=O)OC4C)c3nc-2c(C(=O)N[C@@H]2C(=O)N[C@H](C(C)C)C(=O)N3CC(=O)C[C@H]3C(=O)N(C)CC(=O)N(C)[C@@H](C(C)C)C(=O)OC2C)c(N)c1=O (some centres undefined)    -38.6% (active)

Briefly, growth measured for "C[C@H]1[C@@H](CC(=O)N[C@@H](Cc2coc3ccccc23)B(O)O)O[C@@H]2OC3(C)CC[C@H]4[C@H](C)CC[C@@H]1[C@@]24OO3" : -74.5% (active)

GET /value?item= "COc1cc(OC)c(S(=O)(=O)N(CCCl)CCCl)cc1C(=O)/C=C/c1ccc(C)cc1" &field=growth returns 82.6% (inactive)

// "C[C@H]1[C@H](OC(=O)CCC(=O)N(CCCc2cn(-c3ccc(CN4CCOCC4)cc3)nn2)CCNc2ccnc3cc(Cl)ccc23)O[C@@H]2OC3(C)CC[C@H]4[C@H](C)CC[C@@H]1[C@@]24OO3" : growth value = -22.3% (active)

growth in this record for "CC(=O)Oc1ccccc1C(=O)NC([Se])=NC1CCCCC1" : -95.7% (active)

// growth lookup, compound = "O=C(/C=C/c1ccccc1)c1nc2ccccc2n1Cc1ccc(F)cc1" , result: -33% (active)

The recorded growth for entry "C[C@H]1[C@H](OC(=O)CCC(=O)N(CCCc2cn(-c3ccc([N+](=O)[O-])cc3)nn2)CCNc2ccnc3cc(Cl)ccc23)O[C@@H]2OC3(C)CC[C@H]4[C@H](C)CC[C@@H]1[C@@]24OO3" equals 5.13% (active)
